Tested on: Staphylococcus aureus ATCC 6538
Test: Antimicrobial activity, MIC determination
Format: cell-based
Settings: S. aureus; 24-h incubation, 37°C
Description: The in vitro antimicrobial activity of the compounds was evaluated by determining the minimum inhibitory concentration (MIC) against the Gram-positive microorganisms Staphylococcus aureus ATCC 6538 (S. aureus) and Bacillus subtilis ATCC 6633 (B. subtilis) and the Gram-negative microorganism Xanthomonas campestris ATCC 1395 (X. campestris). […]
MEASURED PARAMETER: MIC (values in parentheses)

[
  {
    "MOLECULE": "CN1CCN(c2c(F)cc3c(=O)c(C(=O)[O-])cn(CCF)c3c2F)CC1.CN1CCN(c2c(F)cc3c(=O)c(C(=O)[O-])cn(CCF)c3c2F)CC1.[Mn+2].c1ccc(-c2ccccn2)nc1 [complex 9, [Mn(flrx)2(bipy)]]",
    "MIC (values in parentheses)": "8.4 µM"
  },
  {
    "MOLECULE": "CN1CCN(c2c(F)cc3c(=O)c(C(=O)[O-])cn(CCF)c3c2F)CC1.CN1CCN(c2c(F)cc3c(=O)c(C(=O)[O-])cn(CCF)c3c2F)CC1.CO.CO.[Co+2] [complex 4, [Co(flrx)2(MeOH)2]]",
    "MIC (values in parentheses)": "4.6 µM"
  },
  {
    "MOLECULE": "CN1CCN(c2c(F)cc3c(=O)c(C(=O)[O-])cn(CCF)c3c2F)CC1.CN1CCN(c2c(F)cc3c(=O)c(C(=O)[O-])cn(CCF)c3c2F)CC1.[Co+2].c1cnc2c(c1)ccc1cccnc12 [complex 17, [Co(flrx)2(phen)]]",
    "MIC (values in parentheses)": "8.0 µM"
  }
]

Next, consider the following molecule.
Please give the measured MIC (values in parentheses) for this molecule: CN1CCN(c2c(F)cc3c(=O)c(C(=O)[O-])cn(CCF)c3c2F)CC1.CN1CCN(c2c(F)cc3c(=O)c(C(=O)[O-])cn(CCF)c3c2F)CC1.[Mn+2].c1ccc(Nc2ccccn2)nc1 [complex 10, [Mn(flrx)2(bipyam)]]
16.6 µM
